Value source: patent US20240239752A1

Molecular target: recombinant human KLK5 (Homo sapiens)
Sequence (Q9Y337 23-293): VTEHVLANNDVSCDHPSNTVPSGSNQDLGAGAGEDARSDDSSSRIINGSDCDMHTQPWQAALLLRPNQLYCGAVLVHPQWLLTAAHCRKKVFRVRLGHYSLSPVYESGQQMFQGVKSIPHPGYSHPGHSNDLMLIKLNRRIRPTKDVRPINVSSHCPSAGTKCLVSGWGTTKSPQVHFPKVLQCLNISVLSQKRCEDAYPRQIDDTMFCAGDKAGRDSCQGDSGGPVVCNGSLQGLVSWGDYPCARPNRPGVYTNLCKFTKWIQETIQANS
Test: Kallikrein (KLK) 5 enzymatic assay (Boc-VPR-AMC fluorogenic substrate)
Conditions: recombinant human KLK5 0.1 μg/well, Boc-VPR-AMC 100 μM, pH 7.5, room temperature, 1% DMSO; tested a minimum of three times
Below: a set of entries, each annotated with reported IC50.

Look up IC50: COCCN1CCC(n2nc(COc3ccccc3CC(=O)O)c3cc(-c4ccc5ccnc(N)c5c4)ccc32)C1 (stereo not drawn) [Compound 304b]
< 1 µM

Subsequent entry: CC(C)(C)OC(=O)N1CCC2(CC1)CC(Oc1ccccc1CC(=O)O)c1cc(-c3cccc4c(N)nccc34)ccc12 (stereo not drawn) [Compound 347d]
< 1 µM

Subsequent entry: Cc1cccc(OCc2nn(C3CCOC3)c3ccc(-c4ccc5ccnc(N)c5c4)cc23)c1CC(=O)O (stereo not drawn) [Compound 248b]
< 1 µM
